assayName: chemical genetic growth profiling, strain panel (AID 1159580);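 also: tested at 20 µM; growth read once vehicle control cultures reached saturation at 30 °C; 1 = growth at the plate median or of vehicle wells; lower values mean less growth of the strain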
appliedConditions: S. cerevisiae deletion strains, growth OD, locus YER002W, strain NOP16, active compounds read low
Out of some 5,500 compounds screened, about 2,000 (36%) were called active. Another 18% or so got no clear call; they are omitted. Some of the results follow.
propertyName: normalized growth

Below: 5 molecules and their reported normalized growth.
- molecule: "O=C(Nc1ccc([N+](=O)[O-])cc1Cl)c1cc(Cl)ccc1O"
  normalized growth: "0.884 (active)"
- molecule: "CN1C(=O)CCC1c1cccnc1 (stereo unspecified)"
  normalized growth: "1 (inactive)"
- molecule: "CC(C)Cn1c(=O)n(C)c(=O)c2[nH]cnc21"
  normalized growth: "0.994 (inactive)"
- molecule: "COc1cc2ncnc(Nc3cccc(Cl)c3)c2cc1OC"
  normalized growth: "0.976 (inactive)"
- molecule: "Cn1c(=O)c2c(ncn2C)n(C)c1=O"
  normalized growth: "1.01 (inactive)"

Find the recorded normalized growth belonging to CCCN1CCCC2Cc3[nH]ncc3CC21 (stereo unspecified) and report it.
0.992 (inactive)

Find the recorded normalized growth belonging to "CC(=O)CCCCn1c(=O)c2c(ncn2C)n(C)c1=O" and report it.
1.03 (inactive)

Find the recorded normalized growth belonging to CCC1(C2=NCCN2)Cc2ccccc2O1 (stereo unspecified) and report it.
1.01 (inactive)

Find the recorded normalized growth belonging to "c1ccc2nc(C3=NCCN3)ccc2c1" and report it.
0.993 (inactive)

Find the recorded normalized growth belonging to NC(CCP(=O)(O)O)C(=O)O (stereo unspecified) and report it.
1.02 (inactive)
